- Test system: NCI-H460 lung
- assayName: NCI tumour cell line growth inhibition, 48 h
# key: entry, value: TGI

>>> result("Cc1n[nH]c(=O)n1/N=C/c1ccncc1")
"> 100 µM"
>>> result("COc1ccc2c(c1)CC[C@@H]1C2CC[C@]2(C)C(=O)N(N)C(=O)CC12 (stereo partly specified)")
"> 100 µM"
>>> result("CC(O)(CNS(=O)(=O)c1ccccc1)c1ccccc1 (stereo unspecified)")
"> 100 µM"
>>> result("CCc1cccc(C(C)CC)c1NC(=O)C(=O)C(CC(=O)Nc1ccc(Cl)c(Cl)c1)C(=O)OC (stereo unspecified)")
"> 100 µM"
>>> result("C/C(=N\\Nc1nc2ccccc2o1)c1cc(C)ncn1")
"30.5 µM"
>>> result("O=C(O)C1(Cc2ccc3c(c2)CCC3)Cc2ccccc2C1=O (stereo unspecified)")
"> 100 µM"

Task item: Please report the measured TGI for "CC1(C)CCCOc2cccc(c2)OCCCC(C)(C)C1=O"
Reply: > 100 µM

Task item: Identify measured TGI associated with "COc1ccc(N=Nc2ccc3oc(=O)c(C(=O)Nc4ccc(Cl)cc4)cc3c2)cc1"
Reply: > 10 µM

Task item: Provide one value: measured TGI of "COc1ccc(CCNC(=O)CCc2ccccc2CO)cc1OC"
Reply: > 100 µM

Task item: Specify reported TGI for the molecule shown: COC(=O)c1ccccc1C1CN=NC12Cc1cc(C)c(C)cc1C2=O (stereo unspecified)
Reply: > 100 µM

Task item: Note down TGI recorded for Cc1ccc(C2C3=C(N=c4s/c(=C/c5ccc(Br)cc5)c(=O)n42)c2ccc4ccccc4c2OCC3)cc1 (stereo unspecified)
Reply: > 100 µM

====

- System: PC-3 prostate
- assayName: NCI tumour cell line growth inhibition, 48 h
reportedMetric: TGI

Below, 8 molecules whose answers are already recorded.
>>> result("Cc1cc(C)c2c(SCc3ccc(Cl)cc3Cl)nc(N)nc2n1")
"> 100 µM"
>>> result("CC(=O)c1cc2c(c3ccsc13)-c1ccccc1CC2")
"> 100 µM"
>>> result("CCNc1nc2c(ncn2C2CC(O)C(COP(=O)(O)O)O2)c(=O)[nH]1 (stereo not given)")
"> 100 µM"
>>> result("CCCCCOC(=O)c1cc2cc(CCl)ccc2oc1=O")
"15.2 µM"
>>> result("C[C@@H]1OC(=O)C[C@H]2CC(=O)N(CCC3CN(S(=O)(=O)C(F)(F)F)c4ccccc43)C[C@@H]21 (stereo not given in full)")
"> 100 µM"
>>> result("COc1ccc(N=Nc2ccc3oc(=O)c(C(=O)Nc4ccc(Cl)cc4)cc3c2)cc1")
"> 10 µM"
>>> result("N#Cc1c(N)nc2c(c1-c1ccc(Br)cc1)CSc1ccccc1-2")
"86.5 µM"
>>> result("C[N+](C)(C)CC(=O)N/N=C(/CC1OC(=O)c2ccccc21)c1ccccc1O (stereo not given)")
"> 100 µM"

Task item: Would you please give the reported TGI of O=S(=O)(O)/C(=C\c1ccccc1)c1ccccc1 (tested in a mixture with another compound) with PC-3 prostate?
Reply: > 100 µM

Task item: Give TGI for C1=CC(=[N+]2N=C(c3ccccc3)CC2c2ccccc2)C=CC1=C1SC(c2ccccc2)(c2ccccc2)c2ccccc21 (stereo not given) tested on PC-3 prostate.
Reply: > 100 µM
